Entry source: patent US9981970B2

# ASSAYED_TARGET: endogenous CETP from serum (Homo sapiens)
# Construct: yielding a concentration of approximately 15 nM endogenous CETP in the assay; from tissue; host or cells: human serum
# Sequence (P11597 18-493): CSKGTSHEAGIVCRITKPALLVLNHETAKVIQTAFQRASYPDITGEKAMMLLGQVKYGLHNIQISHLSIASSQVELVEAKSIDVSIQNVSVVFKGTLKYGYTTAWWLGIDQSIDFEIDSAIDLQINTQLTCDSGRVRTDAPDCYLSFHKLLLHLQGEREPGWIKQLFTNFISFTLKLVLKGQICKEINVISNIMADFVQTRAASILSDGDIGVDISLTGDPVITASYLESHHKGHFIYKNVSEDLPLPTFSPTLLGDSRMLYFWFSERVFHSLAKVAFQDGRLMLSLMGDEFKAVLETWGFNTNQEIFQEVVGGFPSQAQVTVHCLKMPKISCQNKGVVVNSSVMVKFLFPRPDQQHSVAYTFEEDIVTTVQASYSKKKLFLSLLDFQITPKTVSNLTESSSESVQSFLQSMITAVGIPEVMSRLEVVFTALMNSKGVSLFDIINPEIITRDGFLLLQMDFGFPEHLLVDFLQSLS
# PROTOCOL_NOTES: RTA assay in 95% human serum (in vitro radioactive assay of CETP-catalyzed CE and TG transfer)
# Format: biochemical
# CONDITION_LABEL: RTA assay in 95% human serum, endogenous CETP; read-out: RTA (95% HS)
MEASUREMENT_NAME: IC50 (nM)
# number only, unit nM dropped from output

// below: answered compounds
COc1ncc(-c2ccc(C(=O)NC3(C#N)CC3)cc2C)cc1-c1ccc(C(F)(F)F)cc1[C@@H]1CC[C@H]2[C@@H](c3cc(C(F)(F)F)cc(C(F)(F)F)c3)NC(=O)N12; 276
COc1ncc(-c2ccc(C(=O)O)cc2C)cc1-c1ccc(C(F)(F)F)cc1[C@@H]1CC[C@H]2[C@@H](c3cc(C(F)(F)F)cc(C(F)(F)F)c3)NC(=O)N12; 335

Ask: State, for endogenous CETP from serum (Homo sapiens), measured IC50 of the compound listed here: COc1ccc(C2CCC(C(=O)O)CC2)cc1-c1ccc(C(F)(F)F)cc1[C@@H]1CC[C@H]2[C@@H](c3cc(C(F)(F)F)cc(C(F)(F)F)c3)NC(=O)N12 (stereo partly drawn)
Result: 1730

---

# ASSAYED_TARGET: endogenous CETP from serum (Homo sapiens, UniProt P11597)
# Construct: yielding a concentration of approximately 15 nM endogenous CETP in the assay; from tissue; host or cells: human serum
# Sequence (P11597 18-493): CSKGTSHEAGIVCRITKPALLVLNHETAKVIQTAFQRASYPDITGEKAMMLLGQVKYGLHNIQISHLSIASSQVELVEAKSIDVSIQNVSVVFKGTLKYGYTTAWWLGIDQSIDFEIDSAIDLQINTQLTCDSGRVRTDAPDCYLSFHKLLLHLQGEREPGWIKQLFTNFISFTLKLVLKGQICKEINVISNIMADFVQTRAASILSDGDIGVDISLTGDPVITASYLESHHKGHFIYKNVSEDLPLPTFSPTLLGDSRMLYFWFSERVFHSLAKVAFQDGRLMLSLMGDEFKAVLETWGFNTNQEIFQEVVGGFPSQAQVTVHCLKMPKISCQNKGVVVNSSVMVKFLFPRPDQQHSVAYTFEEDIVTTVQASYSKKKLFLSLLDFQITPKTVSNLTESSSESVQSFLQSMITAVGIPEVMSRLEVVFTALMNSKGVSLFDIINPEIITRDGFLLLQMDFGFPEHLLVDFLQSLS
# PROTOCOL_NOTES: RTA assay in 95% human serum (in vitro radioactive assay of CETP-catalyzed CE and TG transfer)
# Assay type: biochemical
# CONDITION_LABEL: Table 1; data generally obtained using the RTA assay in 95% human serum; read-out: IC50
pIC50: −log10 of the molar value.
Each entry gets F if its pIC50 stays under 6, and T if its pIC50 is 6 or above.

Look over these answered cases.
COc1ccc(-c2ccc(C(=O)O)cc2C)cc1-c1ccc(C(F)(F)F)cc1[C@@H]1CC[C@H]2[C@@H](c3ccnc(C(F)(F)F)c3)NC(=O)N12; F
COc1ccc(CCC(=O)O)cc1-c1ccc(C(F)(F)F)cc1[C@@H]1CC[C@H]2[C@@H](c3cc(F)cc(C(F)(F)F)c3)NC(=O)N12; F
COc1ccc(C2CCC(C(=O)O)CC2)cc1-c1ccc(C(F)(F)F)cc1[C@@H]1CC[C@H]2[C@@H](c3cc(C(F)(F)F)cc(C(F)(F)F)c3)NS(=O)(=O)N12 (stereo partly shown); T
COc1ccc(CCC(=O)O)cc1-c1ccc(C(F)(F)F)cc1[C@@H]1CC[C@H]2[C@@H](c3cc(F)cc(C(F)(F)F)c3)NS(=O)(=O)N12; F

Now take the following molecule into account.
Ask: Decide: pIC50 of COc1ncc(-c2ccc(C(=O)O)cc2C)cc1-c1ccc(C(F)(F)F)cc1[C@@H]1CC[C@H]2[C@@H](c3ccnc(C(F)(F)F)c3)NC(=O)N12 >= 6?
Result: F
